Exercise: state measured melting point for each of the compounds provided.

So, COc1cc(-c2cn3cc(Br)ccc3n2)ccc1OCc1ccc(Cl)cc1 ? Its melting point was 178 to 180 °C

Form: compound = COc1cc(-c2nc3ccccn3c2Cl)ccc1OCc1ccccc1 ; melting point = 103 to 104 °C

# compound COc1cc(-c2nc3ccccc3[nH]2)ccc1OCc1ccccc1 ; its melting point = 219 to 221 °C

Given item COc1cc(-c2cn3ccccc3n2)ccc1OCc1ccc(C)cc1 , the value recorded as its melting point is 155 to 157 °C

Item: COc1cc(-c2cn3cc(C)ccc3n2)ccc1OCc1ccc(Br)cc1F | melting point: 147 to 148 °C

Please fill in: melting point reported for COc1cc(-c2nc3ccccc3[nH]2)ccc1OCc1ccc(Cl)cc1 = 204 to 206 °C

Lab note: COc1cc(-c2cn3cc(C)ccc3n2)ccc1OCc1ccc(C#N)cc1 gave melting point of 168 to 169 °C

---

Test system: human LPL mRNA
Assay: Test for increase in LPL mRNA expression (luciferase assay, HTB-92/p387/p383 cell line)
Type: cell-based
Details: 120 h, concentration that increases LPL mRNA expression over the control by 50%, HTB-92/p387/p383 cells, 5 days
measurementLabel: pEC50
Friendly reminder that pEC50 comes from taking -log10 of the concentration in mol/L.

Reported pEC50 for COc1cc(-c2cnc3ccccn23)ccc1OC(C)c1ccccc1 (stereo not drawn) [Example 135] was 5.28

Query COc1cc(-c2cn3ccccc3n2)ccc1Oc1ccc(Cl)cc1 [Example 114] yields pEC50 of 5.14

The compound listed as COc1cc(-c2cnc3ccccn23)ccc1O[C@H](C)c1ccccc1 [Example 132] shows pEC50 equal to 5.21
